This collection of values is drawn from PubChem BioAssay AID1076.

# experiment.description: LNCaP cell loss by flow event count, confirmation, cytotoxicity control for prostate differentiation activator project, single point (AID 1076);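 further: counts scatter-gated live cells after medium removal discards detached dead cells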
# recorded.conditions: flow cytometry event count, 4 d, event count, at 10 µM, stronger effect = lower value

# compound, cell event count
measured = [
    ("Cc1cc(N2CCC(N(C)C3CCCC3)CC2)nc2cc(O)ccc12", 196),
    ("CCOC(=O)c1c(C)n(C)c2ccc(OCC(O)CNC(CC)CO)cc12 (configuration not stated)", 88.5),
    ("CCN(CC)CCCNC(=O)c1cc(-c2ccc(Cl)c(Cl)c2)on1", 165),
    ("O=C(Cn1cnc2ccccc2c1=O)NCCC(=O)N1CCN(c2ccccc2)CC1", 190),
    ("OCc1nc2ccccc2n1CCCOc1ccccc1", 156),
    ("CC(C)(C)c1ccc(C(O)CCCN2CCC(C(O)(c3ccccc3)c3ccccc3)CC2)cc1 (configuration not stated)", 90),
    ("Cc1cc(C)nc(N2CCC(C(=O)Nc3ccc(Oc4ccccc4)cc3)CC2)n1", 398),
    ("CCn1c(=O)cc(SCC(=O)NCCCN2CCN(c3ccccc3F)CC2)c2ccccc21", 338),
    ("COC(=O)Nc1sc2c(c1C(N)=O)CCCCCC2", 202),
    ("c1ccc(OCCCn2nnc(-c3cccnc3)n2)cc1", 126),
    ("COc1ccc(CCNC(=O)C2CCN(Cc3nc(-c4ccccc4F)oc3C)CC2)cc1OC", 478),
    ("CCc1ncc(C(O)c2cccc(OC)c2OC)n1C (configuration not stated)", 172),
]
